- test_system: UniProt:O14842
- assay_details: Agonist activity at human GPR40 expressed in HEK-EM 293 cells assessed as increase in intracellular calcium
property_measured: pEC50
The value called pEC50 is obtained by taking minus log10 of the concentration in mol/L.

Notebook: O=C(O)CCc1ccc(NCc2cccc(Oc3ccccc3)c2)cc1 , pEC50 read as 6.65

----------
- test_system: Free fatty acid receptor 1 (Homo sapiens, UniProt O14842, H86F)
- assay_details: Agonist activity at human GPR40 H86F mutant expressed in HEK-EM 293 cells assessed as increase in intracellular calcium
property_measured: pEC50
The value called pEC50 is obtained by taking minus log10 of the concentration in mol/L.

// pEC50 (Free fatty acid receptor 1 (Homo sapiens, UniProt O14842, H86F)) for O=C(O)CCc1ccc(NCc2cccc(Oc3ccccc3)c2)cc1 = 5.92

----------
- test_system: Free fatty acid receptor 1 (Homo sapiens, UniProt O14842, H137F)
- Sequence (O14842 whole entry H137F): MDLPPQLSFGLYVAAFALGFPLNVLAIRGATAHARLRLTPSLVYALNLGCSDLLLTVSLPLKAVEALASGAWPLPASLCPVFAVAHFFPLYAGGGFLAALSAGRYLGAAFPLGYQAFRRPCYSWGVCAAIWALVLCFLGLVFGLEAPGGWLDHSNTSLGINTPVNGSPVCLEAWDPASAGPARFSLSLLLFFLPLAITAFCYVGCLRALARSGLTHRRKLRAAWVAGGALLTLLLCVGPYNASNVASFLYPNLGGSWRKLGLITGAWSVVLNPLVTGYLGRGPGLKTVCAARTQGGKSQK
- assay_details: Agonist activity at human GPR40 H137F mutant expressed in HEK-EM 293 cells assessed as increase in intracellular calcium
property_measured: EC50 (µM)
Your answer is read as µM, so omit the unit and give the number.

Notebook: O=C(O)CCc1ccc(NCc2cccc(Oc3ccccc3)c2)cc1 , EC50 read as 6.8

----------
- test_system: Free fatty acid receptor 1 (Homo sapiens, UniProt O14842, H86A)
- Sequence (O14842 whole entry H86A): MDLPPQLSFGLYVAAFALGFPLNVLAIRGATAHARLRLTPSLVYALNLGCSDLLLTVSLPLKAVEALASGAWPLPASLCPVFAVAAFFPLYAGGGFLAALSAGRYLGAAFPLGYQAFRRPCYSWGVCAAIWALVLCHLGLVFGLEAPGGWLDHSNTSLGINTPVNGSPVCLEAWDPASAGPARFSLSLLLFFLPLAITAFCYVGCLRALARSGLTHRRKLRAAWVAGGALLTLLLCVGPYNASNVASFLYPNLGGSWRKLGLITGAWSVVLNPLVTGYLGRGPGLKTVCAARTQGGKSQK
- assay_details: Agonist activity at human GPR40 H86A mutant expressed in HEK-EM 293 cells assessed as increase in intracellular calcium
property_measured: EC50
I'd appreciate it if you wrote the number followed by its unit.

Notebook: O=C(O)CCc1ccc(NCc2cccc(Oc3ccccc3)c2)cc1 , EC50 read as 2200 nM

----------
- test_system: Free fatty acid receptor 1 (Homo sapiens, UniProt O14842, H137A)
- assay_details: Agonist activity at human GPR40 H137A mutant expressed in HEK-EM 293 cells assessed as increase in intracellular calcium
property_measured: EC50

// EC50 (Free fatty acid receptor 1 (Homo sapiens, UniProt O14842, H137A)) for O=C(O)CCc1ccc(NCc2cccc(Oc3ccccc3)c2)cc1 = > 30 µM

----------
- test_system: Free fatty acid receptor 1 (Homo sapiens, UniProt O14842, N244A)
- Sequence (O14842 whole entry N244A): as the sequence (O14842 whole entry H86A) above, with A86H, N244A counted along it
- assay_details: Agonist activity at human GPR40 N244A mutant expressed in HEK-EM 293 cells assessed as increase in intracellular calcium
property_measured: EC50 (µM)
Your answer is read as µM, so omit the unit and give the number.

Notebook: O=C(O)CCc1ccc(NCc2cccc(Oc3ccccc3)c2)cc1 , EC50 read as 17.8
